System: primary rat microglia
test protocol: Cell toxicity (dead cells, size <150 μm2) in coated fibrin (cFib) assay;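 further: share of dead cells sized under 150 µm2 at 10 µM in fibrin-stimulated microglia HTS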
condition label: primary microglia HTS, fibrin stimulation, toxicity = cell size <150 μm2
Structures can show the parent of a compound that is named as a salt.
Each record here notes measured Fibrin % cell toxicity.
Answer format: numeric, % implied, no suffix.

Below are worked cases with known answers.
                                   compound    experimental_system      attribute_measured  observed
0                            Oc1noc2c1CCNC2  primary rat microglia  Fibrin % cell toxicity         0
1      CN1CCC(=C2c3ccccc3CC(=O)c3sccc32)CC1  primary rat microglia  Fibrin % cell toxicity         1
2  CC#CCn1c(N2CCC[C@@H](N)C2)nc2c1c(=O)n(Cc1nc(C)c3ccccc3n1)c(=O)n2C  primary rat microglia  Fibrin % cell toxicity         1
3  CCN(CCO)CCCC(C)Nc1ccnc2cc(Cl)ccc12 (stereo not shown) [Hydroxychloroquine]  primary rat microglia  Fibrin % cell toxicity         1
4  O=C(c1ccc(F)cc1)C1CCN(CCn2c(=O)[nH]c3ccccc3c2=O)CC1 [Ketanserin Tartrate]  primary rat microglia  Fibrin % cell toxicity         1
5  CCN1CCC[C@H]1CNC(=O)c1cc(S(N)(=O)=O)ccc1OC [Levosulpiride]  primary rat microglia  Fibrin % cell toxicity         1

Consider the compound Cl.N[C@H]1C(O)O[C@H](CO)[C@@H](O)[C@@H]1O (stereo partly shown) [Glucosamine Hydrochloride] . State its measured Fibrin % cell toxicity.
1

Consider the compound NC(=O)CCCCC1CCSS1 (stereo not shown) [Lipoamide] . State its measured Fibrin % cell toxicity.
0

Consider the compound `COc1ccccc1O` . State its measured Fibrin % cell toxicity.
0

Consider the compound CCC[C@@H]1C[C@@H](C(=O)N[C@@H]([C@H]2O[C@H](SC)[C@H](O)[C@@H](O)[C@H]2O)[C@@H](C)O)N(C)C1 [Lincomycin] . State its measured Fibrin % cell toxicity.
1

Consider the compound O=[N+]([O-])O[C@H]1CO[C@H]2[C@@H]1OC[C@H]2O[N+](=O)[O-] [Isosorbide Dinitrate] . State its measured Fibrin % cell toxicity.
0
